System: calcium channel (guinea-pig isolated ileal longitudinal smooth muscle) (Cavia porcellus)
Construct: The longitudinal smooth muscle is carefully separated from the underlying circular muscle layer; from tissue; host or cells: guinea-pig ileal longitudinal smooth muscle
Sequence (O35505 whole entry): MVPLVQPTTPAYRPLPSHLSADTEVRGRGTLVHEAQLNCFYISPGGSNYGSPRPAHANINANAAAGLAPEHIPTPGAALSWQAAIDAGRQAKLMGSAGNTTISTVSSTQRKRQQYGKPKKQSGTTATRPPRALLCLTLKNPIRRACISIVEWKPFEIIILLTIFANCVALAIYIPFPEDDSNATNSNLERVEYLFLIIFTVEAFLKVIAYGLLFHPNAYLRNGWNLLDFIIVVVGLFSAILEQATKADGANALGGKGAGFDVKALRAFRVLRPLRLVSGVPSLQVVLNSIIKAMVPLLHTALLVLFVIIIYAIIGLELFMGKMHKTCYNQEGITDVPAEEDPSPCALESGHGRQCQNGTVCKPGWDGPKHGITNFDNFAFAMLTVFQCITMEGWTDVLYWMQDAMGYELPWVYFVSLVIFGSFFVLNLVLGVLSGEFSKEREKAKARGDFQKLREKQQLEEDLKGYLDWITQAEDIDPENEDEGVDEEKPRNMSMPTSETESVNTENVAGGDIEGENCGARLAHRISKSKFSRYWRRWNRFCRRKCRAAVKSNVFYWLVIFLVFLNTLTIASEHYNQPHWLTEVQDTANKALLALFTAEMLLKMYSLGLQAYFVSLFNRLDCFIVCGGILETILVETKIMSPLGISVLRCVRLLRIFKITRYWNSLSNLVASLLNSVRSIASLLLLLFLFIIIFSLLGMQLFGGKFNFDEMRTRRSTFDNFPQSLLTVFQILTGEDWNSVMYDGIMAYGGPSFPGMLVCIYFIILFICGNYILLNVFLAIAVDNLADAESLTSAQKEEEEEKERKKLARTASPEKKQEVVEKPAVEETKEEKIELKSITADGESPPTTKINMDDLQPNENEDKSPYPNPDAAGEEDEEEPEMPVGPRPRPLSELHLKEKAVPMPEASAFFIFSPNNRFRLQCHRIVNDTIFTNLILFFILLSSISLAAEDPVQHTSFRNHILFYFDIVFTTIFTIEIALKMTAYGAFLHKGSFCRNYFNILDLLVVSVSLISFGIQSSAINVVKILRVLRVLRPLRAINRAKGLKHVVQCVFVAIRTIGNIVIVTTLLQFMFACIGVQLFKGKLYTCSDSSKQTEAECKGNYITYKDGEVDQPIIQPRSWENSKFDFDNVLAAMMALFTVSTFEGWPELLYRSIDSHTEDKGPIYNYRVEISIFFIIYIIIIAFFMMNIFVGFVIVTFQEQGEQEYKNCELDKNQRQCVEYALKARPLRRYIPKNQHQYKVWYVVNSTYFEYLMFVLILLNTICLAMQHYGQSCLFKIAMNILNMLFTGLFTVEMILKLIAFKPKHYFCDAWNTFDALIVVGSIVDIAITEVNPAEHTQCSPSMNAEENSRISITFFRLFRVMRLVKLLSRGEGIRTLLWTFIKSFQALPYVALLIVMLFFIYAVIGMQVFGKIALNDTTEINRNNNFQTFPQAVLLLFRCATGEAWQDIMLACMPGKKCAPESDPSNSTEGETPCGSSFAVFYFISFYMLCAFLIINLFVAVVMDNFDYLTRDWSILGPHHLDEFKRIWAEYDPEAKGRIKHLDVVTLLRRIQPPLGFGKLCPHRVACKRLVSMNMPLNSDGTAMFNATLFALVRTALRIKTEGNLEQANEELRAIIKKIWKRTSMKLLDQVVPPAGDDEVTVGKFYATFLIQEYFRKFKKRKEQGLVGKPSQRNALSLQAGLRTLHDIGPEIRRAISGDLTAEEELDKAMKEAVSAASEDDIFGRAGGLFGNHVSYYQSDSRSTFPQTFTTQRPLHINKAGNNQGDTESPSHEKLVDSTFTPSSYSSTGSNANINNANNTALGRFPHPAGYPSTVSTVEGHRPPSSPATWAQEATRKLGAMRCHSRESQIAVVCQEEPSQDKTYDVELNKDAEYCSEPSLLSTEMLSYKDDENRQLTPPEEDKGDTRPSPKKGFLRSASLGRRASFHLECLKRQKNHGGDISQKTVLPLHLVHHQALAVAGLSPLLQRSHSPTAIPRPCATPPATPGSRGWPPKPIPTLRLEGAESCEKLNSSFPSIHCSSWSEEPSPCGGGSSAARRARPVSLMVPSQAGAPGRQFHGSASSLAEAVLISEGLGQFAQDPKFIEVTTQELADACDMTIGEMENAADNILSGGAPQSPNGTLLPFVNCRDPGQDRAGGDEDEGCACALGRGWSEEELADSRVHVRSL
Method notes: Calcium Channel Antagonist Activity in Guinea-Pig Isolated Ileal Smooth Muscle
Type: cell-based
Details: Kb = concentration producing a two-fold dextral shift in the control CaCl2 concentration-response curve; KCl (80 mM) depolarized ileal smooth muscle; read-out: Calcium antagonist Kb
Reported Kb by item:
Measured endpoint: Kb (µM)

- Compound: "CCN(C)CC#CCCC1SCCCS1 [Oxalate]"
  Measured endpoint: "Kb"
  Units text: "µM"
  Result modifier: ">"
  Readout number: 10
- Compound: "CN(CC#CCCCC1SCCCS1)Cc1ccccc1 [Oxalate]"
  Measured endpoint: "Kb"
  Units text: "µM"
  Result modifier: "="
  Readout number: 4.45
- Compound: "OC1(C2(CCC#CCN3CCCCC3)SCCCS2)c2ccccc2Sc2ccc(Cl)cc21 (stereo not drawn)"
  Measured endpoint: "Kb"
  Units text: "µM"
  Result modifier: "="
  Readout number: 6.09
- Compound: "CN(C)CC#CCCC1(C2(O)c3ccccc3Sc3ccccc32)SCCCS1"
  Measured endpoint: "Kb"
  Units text: "µM"
  Result modifier: "="
  Readout number: 0.68
- Compound: "CCN(CC)CC#CCCC1(C2(O)c3ccccc3C=Cc3ccccc32)SCCCS1 [Oxalate]"
  Measured endpoint: "Kb"
  Units text: "µM"
  Result modifier: "="
  Readout number: 0.3
- Compound: "CN1CCN(CC#CCCC2SCCCS2)CC1 [Dioxalate]"
  Measured endpoint: "Kb"
  Units text: "µM"
  Result modifier: ">"
  Readout number: 10
